- MEASURED ON: T1, biotinylated Aβ1-40 peptide (biotinylated (N-biotinylated in Example 7))
- T1 construct: captured on streptavidin (SA) chip; also called Biotinylated Aβ peptide 1-40; Aβ1-40 on SA chip
- METHOD NOTES: SPR, Fab over Aβ1-40 on SA chip
Listed here: items and their measured koff.
Answer in s⁻¹, number only, no unit symbol.

Observe how each entry below is paired with its result.
BINDER	koff / s⁻¹
9TL variant M30 Fab (Fab, V domains shown, Fab; human IgG2 CH1 and kappa CL) VH: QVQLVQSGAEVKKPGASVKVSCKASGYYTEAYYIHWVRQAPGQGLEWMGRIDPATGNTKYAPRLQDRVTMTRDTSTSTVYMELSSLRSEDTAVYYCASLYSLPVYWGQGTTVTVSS VL: DVVMTQSPLSLPVTLGQPASISCKSSQSLLYSDAKTYLNWFQQRPGQSPRRLIYQISRLDPGVPDRFSGSGSGTDFTLKISRVEAEDVGVYYCLQGTHYPVVFGQGTRLEIKR	0.00068
9TL variant M56 Fab (Fab, V domains shown, Fab; human IgG2 CH1 and kappa CL) VH: QVQLVQSGAEVKKPGASVKVSCKASGYYTEAYYIHWVRQAPGQGLEWMGRIDPATGNTKYAPRLQDRVTMTRDTSTSTVYMELSSLRSEDTAVYYCASLYSLPVVWGQGTTVTVSS VL: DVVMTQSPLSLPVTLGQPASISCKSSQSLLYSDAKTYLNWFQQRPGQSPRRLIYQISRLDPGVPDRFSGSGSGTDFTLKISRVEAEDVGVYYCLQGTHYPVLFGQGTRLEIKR	0.0035
9TL variant M35 Fab (Fab, V domains shown, Fab; human IgG2 CH1 and kappa CL) VH: QVQLVQSGAEVKKPGASVKVSCKASGYYTEAYYIHWVRQAPGQGLEWMGRIDPATGNTKYAPRLQDRVTMTRDTSTSTVYMELSSLRSEDTAVYYCASLYGLPVYWGQGTTVTVSS VL: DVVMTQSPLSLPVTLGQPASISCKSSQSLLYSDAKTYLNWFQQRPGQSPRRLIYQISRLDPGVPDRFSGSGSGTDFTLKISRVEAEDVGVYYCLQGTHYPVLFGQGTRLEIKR	0.009

INPUT: Please indicate koff recorded for 9TL variant M48 Fab (Fab, V domains shown, Fab; human IgG2 CH1 and kappa CL) VH: QVQLVQSGAEVKKPGASVKVSCKASGYYTEAYYIHWVRQAPGQGLEWMGRIDPATGNTKYAPRLQDRVTMTRDTSTSTVYMELSSLRSEDTAVYYCASLYSLPSYWGQGTTVTVSS VL: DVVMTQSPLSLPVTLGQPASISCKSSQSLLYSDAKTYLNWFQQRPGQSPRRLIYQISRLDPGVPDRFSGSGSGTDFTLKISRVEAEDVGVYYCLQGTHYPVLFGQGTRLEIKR
OUTPUT: 0.026

INPUT: Please indicate koff recorded for 9TL variant M49 Fab (Fab, V domains shown, Fab; human IgG2 CH1 and kappa CL) VH: QVQLVQSGAEVKKPGASVKVSCKASGYYTEAYYIHWVRQAPGQGLEWMGRIDPATGNTKYAPRLQDRVTMTRDTSTSTVYMELSSLRSEDTAVYYCASLYSLPNYWGQGTTVTVSS VL: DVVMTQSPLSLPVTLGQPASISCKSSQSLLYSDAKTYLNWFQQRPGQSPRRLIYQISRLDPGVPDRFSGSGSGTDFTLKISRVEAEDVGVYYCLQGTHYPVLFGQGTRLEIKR
OUTPUT: 0.026
